# shrunken log2 fold change listing for each entry below
- Tested on: Escherichia coli TOP10
- Procedure Summary: shrunken log2 fold change of peptide-encoding DNA abundance (4.5 h post-induction vs induction); higher = less antimicrobial activity (less host growth inhibition)
- Run Conditions: time post-induction: 4.5 h; library: site-saturation at positions 5, 18, 19, 20
Property Measured: shrunken log2 fold change

Seq String: RRIRIRPPRLPRPRPRPIFPPRP
Assay Target: Escherichia coli TOP10
Result Value: -0.104
--
Seq String: RRIRNRPPRLPRPRPRPWWFPRP
Assay Target: Escherichia coli TOP10
Result Value: -0.0934
--
Seq String: RRIRDRPPRLPRPRPRPIDYPRP
Assay Target: Escherichia coli TOP10
Result Value: -0.0396
--
Seq String: RRIRGRPPRLPRPRPRPCIEPRP
Assay Target: Escherichia coli TOP10
Result Value: 0.0449
--
Seq String: RRIRERPPRLPRPRPRPFNCPRP
Assay Target: Escherichia coli TOP10
Result Value: 0.0173
--
Seq String: RRIRDRPPRLPRPRPRPFPAPRP
Assay Target: Escherichia coli TOP10
Result Value: 0.0806
--
Seq String: RRIRARPPRLPRPRPRPFWQPRP
Assay Target: Escherichia coli TOP10
Result Value: 0.0762
--
Seq String: RRIRPRPPRLPRPRPRPTVFPRP
Assay Target: Escherichia coli TOP10
Result Value: 0.0272

---

- Tested on: Escherichia coli TOP10
- Procedure Summary: shrunken log2 fold change of peptide-encoding DNA abundance (4.5 h post-induction vs induction); higher = less antimicrobial activity (less host growth inhibition)
- Run Conditions: time post-induction: 4.5 h; library: site-saturation at positions 5, 18, 19, 20
Each entry falls into one class according to its shrunken log2 fold change; the ranges are bottom: < -0.3; middle: ≥ -0.3 and < -0.01; top: ≥ -0.01

Seq String: RRIRERPPRLPRPRPRPMHKPRP
Assay Target: Escherichia coli TOP10
Classification: top

Seq String: RRIRRRPPRLPRPRPRPNQPPRP
Assay Target: Escherichia coli TOP10
Classification: middle

Seq String: RRIRLRPPRLPRPRPRPDTRPRP
Assay Target: Escherichia coli TOP10
Classification: middle

Seq String: RRIRERPPRLPRPRPRPHKIPRP
Assay Target: Escherichia coli TOP10
Classification: middle

Seq String: RRIRIRPPRLPRPRPRPTGRPRP
Assay Target: Escherichia coli TOP10
Classification: middle

Seq String: RRIRLRPPRLPRPRPRPVVCPRP
Assay Target: Escherichia coli TOP10
Classification: middle

Seq String: RRIRDRPPRLPRPRPRPQYNPRP
Assay Target: Escherichia coli TOP10
Classification: bottom

Seq String: RRIRFRPPRLPRPRPRPRAKPRP
Assay Target: Escherichia coli TOP10
Classification: top

Seq String: RRIRLRPPRLPRPRPRPDWEPRP
Assay Target: Escherichia coli TOP10
Classification: top

Seq String: RRIRYRPPRLPRPRPRPGKLPRP
Assay Target: Escherichia coli TOP10
Classification: middle

Seq String: RRIRLRPPRLPRPRPRPDSTPRP
Assay Target: Escherichia coli TOP10
Classification: bottom

Seq String: RRIRSRPPRLPRPRPRPTVCPRP
Assay Target: Escherichia coli TOP10
Classification: top

Seq String: RRIRYRPPRLPRPRPRPGFFPRP
Assay Target: Escherichia coli TOP10
Classification: middle

Seq String: RRIRFRPPRLPRPRPRPTYIPRP
Assay Target: Escherichia coli TOP10
Classification: bottom

Seq String: RRIRMRPPRLPRPRPRPCIQPRP
Assay Target: Escherichia coli TOP10
Classification: middle

Seq String: RRIRSRPPRLPRPRPRPGVEPRP
Assay Target: Escherichia coli TOP10
Classification: top

Seq String: RRIRHRPPRLPRPRPRPQDTPRP
Assay Target: Escherichia coli TOP10
Classification: bottom

Seq String: RRIRARPPRLPRPRPRPLRGPRP
Assay Target: Escherichia coli TOP10
Classification: top

Seq String: RRIRARPPRLPRPRPRPTYIPRP
Assay Target: Escherichia coli TOP10
Classification: bottom

Seq String: RRIRARPPRLPRPRPRPGINPRP
Assay Target: Escherichia coli TOP10
Classification: middle

Seq String: RRIRQRPPRLPRPRPRPANIPRP
Assay Target: Escherichia coli TOP10
Classification: middle

Seq String: RRIRDRPPRLPRPRPRPSHIPRP
Assay Target: Escherichia coli TOP10
Classification: bottom

Seq String: RRIRPRPPRLPRPRPRPFSYPRP
Assay Target: Escherichia coli TOP10
Classification: middle

Seq String: RRIRERPPRLPRPRPRPISHPRP
Assay Target: Escherichia coli TOP10
Classification: bottom

Seq String: RRIRMRPPRLPRPRPRPKPSPRP
Assay Target: Escherichia coli TOP10
Classification: top

Seq String: RRIRKRPPRLPRPRPRPRSNPRP
Assay Target: Escherichia coli TOP10
Classification: top

Seq String: RRIRHRPPRLPRPRPRPFICPRP
Assay Target: Escherichia coli TOP10
Classification: top

Seq String: RRIRKRPPRLPRPRPRPDWMPRP
Assay Target: Escherichia coli TOP10;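 note: peptides expressed intracellularly from a pBAD plasmid library in pooled LB shake-flask culture, induced with 0.3% L-arabinose, DNA abundance read by NGS, three biological replicates, DESeq2 with apeglm shrinkage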
Classification: top
